Where these numbers come from: paper PMC7819943

biological target: OsWRKY34 (Oryza sativa, UniProt Q0JBA9 1-250); experiment: protein-binding microarray (RPBM); PBS, 2% BSA, 51.3 ng/ul salmon testes DNA, 50 uM zinc acetate, 200 nM TF, 25 C, 1 h; high values mean tight binding; conditions: protein: recombinant; tags: N-terminal polyhistidine and DsRed monomer fusion (pET32a); label: CyDye5-dUTP incorporated in the synthesized complementary strand; 3' TTTTT single-stranded linker to array surface; dsDNA, one strand shown
Sequence (Q0JBA9 entry or part of it): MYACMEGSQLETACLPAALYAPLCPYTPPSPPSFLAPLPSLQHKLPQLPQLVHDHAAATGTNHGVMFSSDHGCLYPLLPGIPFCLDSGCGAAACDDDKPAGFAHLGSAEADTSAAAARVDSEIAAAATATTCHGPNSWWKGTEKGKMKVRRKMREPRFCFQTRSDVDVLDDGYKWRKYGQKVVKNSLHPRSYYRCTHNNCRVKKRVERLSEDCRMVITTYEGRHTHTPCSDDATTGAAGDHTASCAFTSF
Whole data set: some 68,000 sequences, median “fluorescence intensity (a.u.)” near 9,100, cut for the highest 2% near 16,000. Many of the other results were omitted from the sample, so the highest values are more common in it than they were.
Hi there, I'd appreciate the recorded binding signal for every entry that follows.

For CCTTGTATTCGGCCCGCACACGCCAACCTGTCCTGTTCTGCGGAGTCACCTAGTGCAG the sequence record lists binding signal as 9600 fluorescence intensity (a.u.)

For ATTTGTTTGTTTTTTTAATAAATGATGTTGTTGACTTTTACGGAGTCACCTAGTGCAG the sequence record lists binding signal as 9030 fluorescence intensity (a.u.)

For CCTTGGGCTGTTTTACCATGGTTTTTGCACACGTGGATGACGGAGTCACCTAGTGCAG the sequence record lists binding signal as 10100 fluorescence intensity (a.u.)

For TTTTAATGTATGACGCTGTTGACTTTTTATCCAACGTTTGCGGAGTCACCTAGTGCAG the sequence record lists binding signal as 16400 fluorescence intensity (a.u.)

For TTTGTCACGCGAATACTGTATTGTAGGGTGGGGTTCACTGCGGAGTCACCTAGTGCAG the sequence record lists binding signal as 12100 fluorescence intensity (a.u.)
